MEASUREMENT DESCRIPTION: NCI Yeast Anticancer Drug Screen. Data for the sgs1 mgt1 strain (AID 161);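 note: 0% = growth of cultures given vehicle only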
TEST CONDITIONS: S. cerevisiae sgs1 mgt1 strain, at 50.0 µM, active compounds read high
This is part of a sample that, as a whole, favours compounds with a hit. Of some 79,000 tested, about 15% had one in any assay.
ASSAY ENDPOINT: growth inhibition (%)

molecule=Clc1ccc(Nc2ncco2)cc1Cl assay_endpoint="growth inhibition" measured_value=30.6
molecule="COc1cc2c(cc1OC)C(=O)C(C1CCCCC1)NC2 (stereo unspecified)" assay_endpoint="growth inhibition" measured_value=8.9
molecule=CC(=O)Nc1c(Cl)cccc1[N+](=O)[O-] assay_endpoint="growth inhibition" measured_value=-4.75
molecule=Cc1ccnc(NC(=O)Nc2ccc(C)cc2[N+](=O)[O-])c1 assay_endpoint="growth inhibition" measured_value=20.4
molecule=O=C(Cc1csc(N=Nc2c(O)[nH]c3ccccc23)n1)Nc1ccccc1 assay_endpoint="growth inhibition" measured_value=-6.35
molecule=c1ccc(Sc2nc(Sc3ccccc3)nc(Sc3ccccc3)n2)cc1 assay_endpoint="growth inhibition" measured_value=-15.2

* * *

# Lookup of reported growth inhibition keyed by entry
MEASUREMENT DESCRIPTION: NCI Yeast Anticancer Drug Screen. Data for the mlh1 rad18 strain (AID 175)
TEST CONDITIONS: S. cerevisiae mlh1 rad18 strain growth inhibition; at 50.0 µM; active compounds read high
The panel holds about 79,000 compounds, 15% with a hit somewhere; the sample as a whole holds those more often.
ASSAY ENDPOINT: growth inhibition (%)

molecule="CCCCC(C(C)=O)C(=O)CC (stereo not given)" assay_endpoint="growth inhibition" measured_value=13.1
molecule=CCN(CC)c1ccc(N=Nc2ccc(C)cc2)cc1 assay_endpoint="growth inhibition" measured_value=12.1
molecule=CC(=O)c1sc(-c2nc(C)c(C(=O)/C=C\c3ccc(/C=C\C(=O)c4sc(-c5nc(C)c(C(C)=O)s5)nc4C)cc3)s2)nc1C assay_endpoint="growth inhibition" measured_value=-14.4
molecule=N#C/C(=C\N1CC(=O)NC1=S)C(=O)c1ccc2ccccc2c1 assay_endpoint="growth inhibition" measured_value=-17.4
molecule=CCOC(=O)Cc1[nH]c(C(=O)OCC)c(CC(=O)OCC)c1C(=O)OCC assay_endpoint="growth inhibition" measured_value=15.7

* * *

MEASUREMENT DESCRIPTION: NCI Yeast Anticancer Drug Screen. Data for the rad50 strain (AID 155);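 note: 0% = growth of vehicle-only cultures of the same strain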
TEST CONDITIONS: S. cerevisiae rad50 strain growth inhibition; at 50.0 µM; active compounds read high
The panel holds about 79,000 compounds, 15% with a hit somewhere; the sample as a whole holds those more often.
ASSAY ENDPOINT: growth inhibition (%)

compound=CCOC(=O)/C=C1/Nc2cc(F)c(F)cc2NC1=O assay_endpoint="growth inhibition" measured_value=-36.1
compound="COc1ccc(C2(C(OC)OC)NC(=O)NC2=O)cc1 (stereo unspecified)" assay_endpoint="growth inhibition" measured_value=-26.8
compound="O=C1OC2(c3ccc(O)cc3Oc3cc(O)ccc32)C2C3CCC(O3)C12 (stereo unspecified)" assay_endpoint="growth inhibition" measured_value=52.2
compound=O=C1C2=C(OCO2)C(=O)C2=C1OCO2 assay_endpoint="growth inhibition" measured_value=2.65
compound="Cc1ccc(OCC2OC(n3cnc4c(Cl)nc(N)nc43)CC2Oc2ccc(C)cc2)cc1 (stereo unspecified)" assay_endpoint="growth inhibition" measured_value=2.3
compound=Cc1ccc(CSCc2c(CSCc3ccc(C)cc3)c(CSCc3ccc(C)cc3)c(CSCc3ccc(C)cc3)c(CSCc3ccc(C)cc3)c2CSCc2ccc(C)cc2)cc1 assay_endpoint="growth inhibition" measured_value=-6
compound=Clc1ccc2c(c1)nnn1nccc21 assay_endpoint="growth inhibition" measured_value=16.4
compound=CCN(Cc1ccc(C(=O)OC)cc1)c1cccc(NC(C)=O)c1 assay_endpoint="growth inhibition" measured_value=33.5
compound=COC(=O)c1ccc(NCC2=CC(=O)c3ccccc3C2=O)cc1 assay_endpoint="growth inhibition" measured_value=46.9
compound=c1ccc(COc2ccc3c(c2)CN(Cc2ccccc2)CO3)cc1 assay_endpoint="growth inhibition" measured_value=-21.1
compound=O=C1CNC(=O)N1CCCl assay_endpoint="growth inhibition" measured_value=19.7
